# System Under Test: T1, matrix metalloprotease 2 (MMP2) (UniProt P08253 110-660, limits assumed)
# T1 construct: also called matrix metalloproteinases 2
# T1 sequence (looked up): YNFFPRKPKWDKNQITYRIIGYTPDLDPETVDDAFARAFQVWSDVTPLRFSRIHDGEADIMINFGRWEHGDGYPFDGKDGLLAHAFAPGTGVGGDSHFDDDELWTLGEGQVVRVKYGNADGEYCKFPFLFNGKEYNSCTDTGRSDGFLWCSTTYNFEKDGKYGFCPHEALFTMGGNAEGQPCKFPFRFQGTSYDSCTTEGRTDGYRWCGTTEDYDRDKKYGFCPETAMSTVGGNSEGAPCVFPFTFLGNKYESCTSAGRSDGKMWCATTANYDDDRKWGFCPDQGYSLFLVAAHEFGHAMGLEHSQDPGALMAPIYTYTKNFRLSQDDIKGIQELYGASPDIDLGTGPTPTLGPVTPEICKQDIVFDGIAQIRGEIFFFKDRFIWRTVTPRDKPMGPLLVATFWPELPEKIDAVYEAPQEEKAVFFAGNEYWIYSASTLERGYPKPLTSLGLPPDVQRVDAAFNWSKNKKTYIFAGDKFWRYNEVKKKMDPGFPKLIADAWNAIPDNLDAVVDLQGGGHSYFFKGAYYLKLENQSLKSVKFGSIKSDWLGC
# Measurement Description: MMP2 FRET-substrate inhibition assay; Ki = IC50/(1+[S]0/Km)
Starred links: 1 amine or outer side, 2 acyl side, 3 side chain; linkers in the order of their positions; H or OH if unused. Non-standard residues stand in square brackets, D forms with d. Primed or numbered codes have the meaning given here. No end group written: not given here. Asn(OH)″ = N^γ-hydroxy-L-asparagine (L-aspartic acid β-hydroxamate), O=C(C[C@H](N[*:1])C(=O)[*:2])NO; Asn(OH) = N-gamma-hydroxy-L-asparagine, O=C(C[C@H](N[*:1])C(=O)[*:2])NO[*:3]
The entries below come with measured Ki values attached.
Reply with just the number (in nM).

Sample answers from the record:
cyclo(ATSGISYGQ[Asn(OH)]ALMPSGYM) (SMILES CC[C@H](C)[C@@H]1NC(=O)CNC(=O)[C@H](CO)NC(=O)[C@H]([C@@H](C)O)NC(=O)[C@H](C)NC(=O)[C@H](CCSC)NC(=O)[C@H](Cc2ccc(O)cc2)NC(=O)CNC(=O)[C@H](CO)NC(=O)[C@@H]2CCCN2C(=O)[C@H](CCSC)NC(=O)[C@H](CC(C)C)NC(=O)[C@H](C)NC(=O)[C@H](CC(=O)NO)NC(=O)[C@H](CCC(N)=O)NC(=O)CNC(=O)[C@H](Cc2ccc(O)cc2)NC(=O)[C@H](CO)NC1=O, also called peptide 14) [cyclo[…(OH)ALMPSGYM]] = 2180
cyclo(ISYGQ[Asn(OH)″]ALMP) (SMILES CC[C@H](C)[C@@H]1NC(=O)[C@@H]2CCCN2C(=O)[C@H](CCSC)NC(=O)[C@H](CC(C)C)NC(=O)[C@H](C)NC(=O)[C@H](CC(=O)NO)NC(=O)[C@H](CCC(N)=O)NC(=O)CNC(=O)[C@H](Cc2ccc(O)cc2)NC(=O)[C@H](CO)NC1=O, also called peptide 10) [cyclo[ISYGQN(OH)ALMP]] = 21300

Now turn to the next binder.
Item ISYGNDALMP-NH2 (Linear 10-mer; also called peptide 8; linear APP-IP 8) [β-amyloid precursor protein-derived inhibitory peptide (APP-IP) 8, ISYGNDALMP] has what recorded Ki?
60
